Test target: Sigma non-opioid intracellular receptor 1 (Homo sapiens)
Sequence (Q99720 whole entry): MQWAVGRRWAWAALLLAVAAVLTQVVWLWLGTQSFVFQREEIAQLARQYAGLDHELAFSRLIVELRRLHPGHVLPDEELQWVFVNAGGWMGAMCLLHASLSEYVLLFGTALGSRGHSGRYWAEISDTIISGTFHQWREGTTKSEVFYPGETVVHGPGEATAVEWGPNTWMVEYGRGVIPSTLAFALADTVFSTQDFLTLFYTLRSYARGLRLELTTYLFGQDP
Measurement notes: Binding affinity to sigma 1 receptor (unknown origin)
Experimental endpoint: Ki

Please list Ki recorded for the compound CN1CCc2ccc(OCCCN3CCC(c4noc5cc(F)ccc45)CC3)cc2C1=O
> 1 µM

###

Test target: Histamine H1 receptor (Homo sapiens, UniProt P35367)
Experimental endpoint: pKi
Reminder that pKi means the negative base-10 logarithm of the concentration expressed in mol/L.

Retrieve pKi on Histamine H1 receptor (Homo sapiens, UniProt P35367); query O=C(CCCCN1CCC(c2noc3cc(F)ccc23)CC1)c1cc2c3c(c1)CCN3C(=O)CC2
6.20

###

Values of pKi reported for 5-hydroxytryptamine receptor 2A (Rattus norvegicus, UniProt P14842) appear below.
Scale explanation: pKi corresponds to minus log10 of a concentration expressed in moles per litre.

Some compounds with known pKi results, for comparison:
- Record smiles: "CN1CCc2ccc(OCCCN3CCN(c4ccccc4F)CC3)cc2C1=O"
  Test target: "5-hydroxytryptamine receptor 2A (Rattus norvegicus, UniProt P14842)"
  Experimental endpoint: "pKi"
  Measured: 6.51
- Record smiles: "CN1CCc2ccc(OCCCN3CCN(Cc4ccc5c(c4)OCO5)CC3)cc2C1=O"
  Test target: "5-hydroxytryptamine receptor 2A (Rattus norvegicus, UniProt P14842)"
  Experimental endpoint: "pKi"
  Measured: 7.59

# assay system 5-hydroxytryptamine receptor 2A (Rattus norvegicus, UniProt P14842): give pKi of CCN1CCc2ccc(OCCCN3CCC(c4noc5cc(F)ccc45)CC3)cc2C1=O
7.04

Report pKi under test system 5-hydroxytryptamine receptor 2A (Rattus norvegicus, UniProt P14842) for CN1CCc2ccc(OCCCN3CCN(c4ccc(F)cc4)CC3)cc2C1=O .
6.61

Answer with pKi of CN1COc2ccc(OCCCN3CCC(c4noc5cc(F)ccc45)CC3)cc2C1=O measured for 5-hydroxytryptamine receptor 2A (Rattus norvegicus, UniProt P14842).
6.22

Give pKi for CN1CCc2ccc(OCCCN3CCN(c4cccc(Cl)c4Cl)CC3)cc2C1=O tested on 5-hydroxytryptamine receptor 2A (Rattus norvegicus, UniProt P14842).
Sequence (P14842 whole entry): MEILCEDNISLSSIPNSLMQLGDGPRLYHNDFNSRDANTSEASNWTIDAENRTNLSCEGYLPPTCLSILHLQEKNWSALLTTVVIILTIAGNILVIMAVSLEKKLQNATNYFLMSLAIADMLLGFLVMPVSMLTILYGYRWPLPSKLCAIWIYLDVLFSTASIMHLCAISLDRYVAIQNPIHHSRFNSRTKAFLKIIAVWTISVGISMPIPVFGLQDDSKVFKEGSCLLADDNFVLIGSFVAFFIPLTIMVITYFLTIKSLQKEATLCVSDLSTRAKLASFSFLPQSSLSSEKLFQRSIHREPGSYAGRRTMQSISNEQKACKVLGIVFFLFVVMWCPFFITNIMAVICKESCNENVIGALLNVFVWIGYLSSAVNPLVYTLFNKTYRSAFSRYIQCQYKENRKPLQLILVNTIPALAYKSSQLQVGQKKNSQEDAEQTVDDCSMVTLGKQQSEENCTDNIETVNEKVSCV
7.77

Please indicate recorded pKi of CN1CCc2ccc(OCCCN3CCN(c4ncccn4)CC3)cc2C1=O measured with 5-hydroxytryptamine receptor 2A (Rattus norvegicus, UniProt P14842).
7.19

Report measured pKi on 5-hydroxytryptamine receptor 2A (Rattus norvegicus, UniProt P14842); entry: Cn1ccc2ccc(OCCCN3CCC(c4noc5cc(F)ccc45)CC3)cc2c1=O
8.46

###

Test target: 5-hydroxytryptamine receptor 2A (Homo sapiens)
Measurement notes: Antagonist activity at human 5HT2A receptor expressed in CHO-K1 cells assessed as inhibition of 5HT-induced calcium flux incubated for 60 mins at 37 degC followed by 15 mins incubation at room temperature and subsequent 5HT addition by calcium 4 dye based FLIPR assay
Experimental endpoint: pIC50
Quick note: pIC50 values are minus log10 of concentrations in mol/L.

Return pIC50 for the following compound: CN1CCc2ccc(OCCCN3CCC(c4noc5cc(F)ccc45)CC3)cc2C1=O
7.33

###

Test target: D(2) dopamine receptor (Rattus norvegicus, UniProt P61169)
Sequence (P61169 whole entry): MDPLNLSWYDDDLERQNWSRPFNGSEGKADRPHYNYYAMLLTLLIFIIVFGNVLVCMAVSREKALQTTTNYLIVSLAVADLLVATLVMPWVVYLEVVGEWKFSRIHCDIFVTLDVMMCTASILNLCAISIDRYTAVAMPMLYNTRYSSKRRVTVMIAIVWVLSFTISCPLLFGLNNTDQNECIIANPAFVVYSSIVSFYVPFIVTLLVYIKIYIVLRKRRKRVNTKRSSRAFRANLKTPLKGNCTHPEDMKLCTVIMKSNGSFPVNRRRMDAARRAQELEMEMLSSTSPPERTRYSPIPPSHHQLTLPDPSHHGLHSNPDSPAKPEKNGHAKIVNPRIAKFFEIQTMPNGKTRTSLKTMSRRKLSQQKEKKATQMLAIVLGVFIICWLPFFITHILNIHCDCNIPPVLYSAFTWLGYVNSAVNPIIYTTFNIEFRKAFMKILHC
Measurement notes: biochemical
Description: Displacement of [3H]spiperone from D2 receptor in rat striatum measured after 15 mins by liquid scintillation counting method
In this scheme, each record receives a class according to its Ki; the ranges are low bin = under 300 nM, mid bin = from 300 nM up to 600 nM, high bin = 600 nM and over

- Compound: "CN1CCc2ccc(OCC(F)CN3CCC(c4noc5cc(F)ccc45)CC3)cc2C1=O (stereo not given)"
  Classification: "mid bin"
- Compound: "CN1CCc2ccc(OCCCCN3CCN(c4cccc(Cl)c4Cl)CC3)cc2C1=O"
  Classification: "mid bin"
- Compound: "CN1CCc2ccc(OCCCN3CCN(Cc4ccc5c(c4)OCO5)CC3)cc2C1=O"
  Classification: "high bin"

We now examine a further compound.
Hello team, could you let me know which band the following compound falls into: CN1CCc2ccc(OCCCN3CCN(c4ccc(F)cc4)CC3)cc2C1=O
mid bin

###

Test target: Sodium-dependent dopamine transporter (Homo sapiens, UniProt Q01959)
Sequence (Q01959 whole entry): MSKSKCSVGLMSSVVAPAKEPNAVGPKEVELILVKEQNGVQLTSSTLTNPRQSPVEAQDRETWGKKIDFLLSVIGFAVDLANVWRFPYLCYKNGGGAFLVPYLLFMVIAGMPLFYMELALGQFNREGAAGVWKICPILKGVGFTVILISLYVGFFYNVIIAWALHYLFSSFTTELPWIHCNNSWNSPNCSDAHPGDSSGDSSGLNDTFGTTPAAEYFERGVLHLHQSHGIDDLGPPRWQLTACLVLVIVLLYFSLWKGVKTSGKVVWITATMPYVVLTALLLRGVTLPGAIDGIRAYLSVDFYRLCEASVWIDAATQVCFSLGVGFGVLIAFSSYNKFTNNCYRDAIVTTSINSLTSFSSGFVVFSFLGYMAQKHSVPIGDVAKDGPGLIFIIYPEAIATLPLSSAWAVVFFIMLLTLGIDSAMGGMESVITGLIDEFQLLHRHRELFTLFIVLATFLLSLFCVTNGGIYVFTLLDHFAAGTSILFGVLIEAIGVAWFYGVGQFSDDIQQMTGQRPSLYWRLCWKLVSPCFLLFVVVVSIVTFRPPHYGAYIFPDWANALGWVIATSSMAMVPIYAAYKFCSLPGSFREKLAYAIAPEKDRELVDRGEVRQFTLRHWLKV
Experimental endpoint: Ki

Please give the documented Ki of CN1CCc2ccc(OCCCN3CCC(c4noc5cc(F)ccc45)CC3)cc2C1=O
> 1000 nM

###

Test target: Sodium-dependent serotonin transporter (Homo sapiens, UniProt P31645)
Sequence (P31645 whole entry): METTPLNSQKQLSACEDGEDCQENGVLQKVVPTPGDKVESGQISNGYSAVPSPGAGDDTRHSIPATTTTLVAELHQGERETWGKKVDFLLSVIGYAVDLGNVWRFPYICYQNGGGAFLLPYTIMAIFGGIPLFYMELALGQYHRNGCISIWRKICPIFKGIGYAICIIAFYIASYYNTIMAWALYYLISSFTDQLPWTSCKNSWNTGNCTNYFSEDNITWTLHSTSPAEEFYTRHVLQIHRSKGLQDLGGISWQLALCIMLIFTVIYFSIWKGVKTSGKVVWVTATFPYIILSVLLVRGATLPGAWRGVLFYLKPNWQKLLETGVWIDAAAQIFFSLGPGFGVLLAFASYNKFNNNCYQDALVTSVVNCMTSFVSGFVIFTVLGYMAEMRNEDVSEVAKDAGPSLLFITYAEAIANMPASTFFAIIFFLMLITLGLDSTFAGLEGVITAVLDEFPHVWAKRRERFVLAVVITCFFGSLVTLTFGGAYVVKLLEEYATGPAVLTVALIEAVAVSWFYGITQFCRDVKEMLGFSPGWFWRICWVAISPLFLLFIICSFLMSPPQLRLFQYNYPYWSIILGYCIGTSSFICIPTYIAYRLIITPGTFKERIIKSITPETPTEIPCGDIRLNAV
pKi: −log10 of the molar value.
Experimental endpoint: pKi

For Sodium-dependent serotonin transporter (Homo sapiens, UniProt P31645), give the measured pKi of the entry CN1CCc2ccc(OCCCN3CCC(c4noc5cc(F)ccc45)CC3)cc2C1=O
< 6.00

###

Test target: Sigma intracellular receptor 2 (Homo sapiens)
Sequence (Q5BJF2 whole entry): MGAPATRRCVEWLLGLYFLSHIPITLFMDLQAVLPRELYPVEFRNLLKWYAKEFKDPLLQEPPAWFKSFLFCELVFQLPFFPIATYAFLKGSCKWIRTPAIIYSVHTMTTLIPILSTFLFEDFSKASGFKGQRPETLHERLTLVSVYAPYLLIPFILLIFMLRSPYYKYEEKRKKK
Measurement notes: Binding affinity to sigma 2 receptor (unknown origin)
pKi: −log10 of the molar value.
Experimental endpoint: pKi

Let me know recorded pKi for CN1CCc2ccc(OCCCN3CCC(c4noc5cc(F)ccc45)CC3)cc2C1=O , thanks.
< 6.00

###

Test target: D(2) dopamine receptor (Homo sapiens)
Measurement notes: Binding affinity to D2 receptor (unknown origin)
Experimental endpoint: Ki (nM)
Report only the number, with the unit nM understood.

Determine its reported Ki: O=C(CCCCN1CCC(c2noc3cc(F)ccc23)CC1)c1cc2c3c(c1)CCN3C(=O)CC2
2.9

###

Test target: D(2) dopamine receptor (Rattus norvegicus, UniProt P61169)
Experimental endpoint: Ki (nM)
Express the result in nM but write the number alone.

- Record smiles: "CN1CCc2ccc(OCCCN3CCN(c4ccccc4F)CC3)cc2C1=O"
  Measured: 117
- Record smiles: "CN1CCc2ccc(OCCCN3CCN(c4cccc(C(F)(F)F)c4)CC3)cc2C1=O"
  Measured: 123

Give Ki for CN1CCc2ccc(OCCCN3CCN(c4ccccc4Cl)CC3)cc2C1=O
391

###

Measurement notes: Displacement of [3H]ketanserin from human 5HT2A receptor expressed in CHO-K1 cells measured after 20 mins
Experimental endpoint: Ki (nM)
Give your result in nM as a bare value.

Write down Ki measured for item O=c1ccc2ccc(OCCCCN3CCN(c4cccc5sccc45)CC3)cc2[nH]1
0.47

###

Test target: D(3) dopamine receptor (Homo sapiens)
Experimental endpoint: Ki (nM)
Please state the figure in nM; there is no need to write the unit.

// fetch Ki; item: O=C(CCCCN1CCC(c2noc3cc(F)ccc23)CC1)c1cc2c3c(c1)CCN3C(=O)CC2 ; system: D(3) dopamine receptor (Homo sapiens)
1.66

###

Test target: 5-hydroxytryptamine receptor 1A (Rattus norvegicus, UniProt P19327)
Sequence (P19327 whole entry): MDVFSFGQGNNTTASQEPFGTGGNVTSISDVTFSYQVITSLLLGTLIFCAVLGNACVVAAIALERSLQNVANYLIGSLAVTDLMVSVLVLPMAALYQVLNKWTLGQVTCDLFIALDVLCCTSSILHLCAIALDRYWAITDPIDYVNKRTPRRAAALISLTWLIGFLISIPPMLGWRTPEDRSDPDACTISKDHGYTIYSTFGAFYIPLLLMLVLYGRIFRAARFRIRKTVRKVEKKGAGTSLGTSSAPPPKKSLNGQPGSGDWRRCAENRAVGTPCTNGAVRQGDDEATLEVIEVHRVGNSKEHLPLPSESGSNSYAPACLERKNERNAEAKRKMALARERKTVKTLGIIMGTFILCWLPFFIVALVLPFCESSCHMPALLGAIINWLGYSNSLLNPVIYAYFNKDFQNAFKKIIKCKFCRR
Measurement notes: biochemical
Description: Displacement of [3H](+)8-OH-DPAT from rat cerebral cortex 5HT1A receptor measured after 30 mins by liquid scintillation counting method
Ki strictly less than 400 nM = Condition met. Otherwise Condition not met.

Study these solved cases before continuing.
- Molecule: "CN1CCc2ccc(OCCCN3CCN(c4ncccn4)CC3)cc2C1=O"
  Classification: "Condition met"
- Molecule: "CN1CCc2ccc(OCC(O)CN3CCC(c4noc5cc(F)ccc45)CC3)cc2C1=O (stereo not given)"
  Classification: "Condition not met"
- Molecule: "CN1CCc2ccc(OCCCN3CCC(c4noc5cc(F)ccc45)CC3)cc2C1=O"
  Classification: "Condition met"
- Molecule: "COc1ccccc1N1CCN(CCCOc2ccc3c(c2)C(=O)N(C)CC3)CC1"
  Classification: "Condition not met"

Take the molecule CN1CCc2ccc(OCCCN3CCC(C(=O)c4ccc(F)cc4F)CC3)cc2C1=O and say whether its Ki is less than 400 nM.
Condition not met

Lab note: Ki threshold 400 nM. Does this molecule come in strictly under it? CN1CCc2ccc(OCCCN3CCN(c4ccccc4F)CC3)cc2C1=O
Condition met

Item CCN1CCc2ccc(OCCCN3CCC(c4noc5cc(F)ccc45)CC3)cc2C1=O : Ki beneath 400 nM, strictly?
Condition met

###

Test target: 5-hydroxytryptamine receptor 6 (Homo sapiens, UniProt P50406)
Sequence (P50406 whole entry): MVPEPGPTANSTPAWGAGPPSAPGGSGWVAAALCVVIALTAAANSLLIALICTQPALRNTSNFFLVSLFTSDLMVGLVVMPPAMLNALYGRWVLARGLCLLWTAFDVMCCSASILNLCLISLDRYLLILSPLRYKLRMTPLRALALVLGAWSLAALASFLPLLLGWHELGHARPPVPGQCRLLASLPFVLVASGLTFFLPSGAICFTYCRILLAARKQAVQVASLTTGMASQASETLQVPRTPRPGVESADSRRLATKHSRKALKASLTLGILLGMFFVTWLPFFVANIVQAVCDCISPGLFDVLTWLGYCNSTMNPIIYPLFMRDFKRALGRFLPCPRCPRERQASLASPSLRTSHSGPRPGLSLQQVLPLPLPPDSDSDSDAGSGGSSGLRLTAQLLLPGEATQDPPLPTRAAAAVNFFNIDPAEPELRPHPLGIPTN
Experimental endpoint: pKi
Would you please state pKi, meaning minus log10 of the concentration in mol/L, as a bare number?

Report value: pKi, system: 5-hydroxytryptamine receptor 6 (Homo sapiens, UniProt P50406), compound: Cn1ccc2ccc(OCCCN3CCC(c4noc5cc(F)ccc45)CC3)cc2c1=O
6.78

###

Measurement notes: Therapeutic index, ratio of ED50 for toxicity in po dosed Kunming mouse assessed as catalepsy to ED50 for antipsychotic activity in Kunming mouse assessed as inhibition of MK801-induced locomotor activity
Type: organism-based
Recorded conditions: in vivo, read-out: Ratio ED50
Experimental endpoint: selectivity ratio
Answer field: number only, no words.

Write down selectivity ratio measured for item O=C(CCCN1CCC(O)(c2ccc(Cl)cc2)CC1)c1ccc(F)cc1 [HALOPERIDOL]
2.9

###

Test target: Voltage-gated inwardly rectifying potassium channel KCNH2 (Homo sapiens, UniProt Q12809)
Sequence (Q12809 whole entry): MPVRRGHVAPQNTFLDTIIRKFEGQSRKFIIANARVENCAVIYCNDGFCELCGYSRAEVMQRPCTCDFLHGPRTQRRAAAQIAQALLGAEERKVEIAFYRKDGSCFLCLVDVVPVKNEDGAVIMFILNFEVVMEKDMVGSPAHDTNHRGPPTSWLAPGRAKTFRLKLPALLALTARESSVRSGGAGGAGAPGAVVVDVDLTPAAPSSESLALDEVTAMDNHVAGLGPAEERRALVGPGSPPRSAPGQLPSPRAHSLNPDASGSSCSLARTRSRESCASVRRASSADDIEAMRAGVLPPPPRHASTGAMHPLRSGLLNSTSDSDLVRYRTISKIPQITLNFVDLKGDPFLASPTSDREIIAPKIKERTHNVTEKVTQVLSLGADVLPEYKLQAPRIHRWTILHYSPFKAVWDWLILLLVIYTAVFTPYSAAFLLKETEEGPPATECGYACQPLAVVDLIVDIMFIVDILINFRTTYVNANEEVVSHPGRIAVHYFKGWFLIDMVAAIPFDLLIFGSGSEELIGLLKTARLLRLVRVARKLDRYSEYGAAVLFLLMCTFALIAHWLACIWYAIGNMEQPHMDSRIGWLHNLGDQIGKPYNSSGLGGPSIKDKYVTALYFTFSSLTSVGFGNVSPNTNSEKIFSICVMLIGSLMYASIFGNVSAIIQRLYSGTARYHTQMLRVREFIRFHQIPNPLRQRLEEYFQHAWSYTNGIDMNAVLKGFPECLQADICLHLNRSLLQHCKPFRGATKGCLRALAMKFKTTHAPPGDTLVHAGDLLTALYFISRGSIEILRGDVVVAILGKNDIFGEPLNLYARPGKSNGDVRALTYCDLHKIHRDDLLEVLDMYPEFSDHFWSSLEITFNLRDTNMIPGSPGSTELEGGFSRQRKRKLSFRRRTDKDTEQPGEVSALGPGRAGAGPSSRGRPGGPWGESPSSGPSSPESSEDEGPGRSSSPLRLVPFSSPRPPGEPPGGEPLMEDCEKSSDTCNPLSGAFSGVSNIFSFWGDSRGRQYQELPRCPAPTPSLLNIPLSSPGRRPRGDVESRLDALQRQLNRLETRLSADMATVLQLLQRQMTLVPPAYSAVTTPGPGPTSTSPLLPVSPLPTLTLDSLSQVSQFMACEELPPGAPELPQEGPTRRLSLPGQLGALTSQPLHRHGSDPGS
Experimental endpoint: IC50 (nM)
Just the number in nM, nothing appended.

Using the record for CN1CCc2ccc(OCCCN3CCC(c4noc5cc(F)ccc45)CC3)cc2C1=O , state its measured IC50.
2310

###

Test target: D(1A) dopamine receptor (Homo sapiens, UniProt P21728)
Measurement notes: Binding affinity to D1 receptor (unknown origin)
pKi: −log10 of the molar value.
Experimental endpoint: pKi

Tell us which pKi value is on record for CN1CCc2ccc(OCCCN3CCC(c4noc5cc(F)ccc45)CC3)cc2C1=O
< 6.00
